- Tested on: MS2 coat protein
- method.summary: apparent KD of MS2 coat protein; higher = weaker reporter binding
- condition.notes: Eterna round: R107; input ligand: theophylline 2 mM
Tick TRUE if apparent KD of MS2 coat protein is 90 nM or greater. Tick FALSE if apparent KD of MS2 coat protein is less than 90 nM.

Before answering, review these 4 worked examples.
AAUAUAUAUCACGAACUGUGGUGUAUGUUCCGAGGACCGGUACGGCCGCCACUCGCGUGGUUCCACAUGAGGAUCACCCAUGUUG [XTryp A #8]
FALSE
UAUUAUCAGUCGGCCGCCACUGUCACAUGAGGAUCACCCAUGUAACUUGGGUUAUAUUUAAUAUACAGGACCGGGACAAAGGCUA [JR_ExcTryptoB_Sub012]
FALSE
UUUAACGGGCACGAUACCAGCGACAUGAGGAUCACCCAUGUAAACGCGGUGACGGUCUGUUGCCCUUGGCAGCGUGCAAAAUAAU [Zaquarar]
TRUE
AGCGCGAAUAGAUCCAAAGUUAUUAGUGAGCGAGGACCGGUACGGCCGCCACUCGUGGCUCUACAUGAGGAUCACCCAUGUACAU [theeternabot_exclusion_MS2_Trp_A_10]
TRUE

Reported apparent KD of MS2 coat protein reaches at least 90 nM for ACAAGAGGGAUGGAUACCAGCGACAUGAGGAUCACCCAUGUAUGAGGAUCAGCCAUGUUAUGCCCUUGGCAGCCACGAAGAUCAG [XXXMULLIN] ?
TRUE

Determine whether measured apparent KD of MS2 coat protein meets or exceeds 90 nM for AGAGUUAGACAAAAGUCUAGCUCACCAGAAGGAGCGUCCGAAAGGACAGGUAGGUCGCUGGUGCUUGAGGAUCACCCAAGUUCCU [ArgAS 22 #OpenEnded #AlternativeMS2]
TRUE
